Listing of recorded Papp by entry.
Test: in vitro
Settings: PAMPA, pH 7.4
Description: Permeability of the compound in pH 7.4 PBS by PAMPA-BBB assay
Remember to quote the unit after the number.

O=C(NCCC1CCN(Cc2ccccc2)CC1)c1cc(=O)c2cc(O)c(O)cc2o1 :: 3.2 ×10⁻⁶ cm/s
O=C(NCCC1CCN(Cc2ccccc2)CC1)c1cc(=O)c2cc(O)ccc2[nH]1 :: 5.1 ×10⁻⁶ cm/s
O=C(NCCC1CCN(Cc2ccccc2)CC1)c1cc(=O)c2c(O)cc(O)cc2o1 :: 3.7 ×10⁻⁶ cm/s
COc1ccc2oc(C(=O)NCC3CCN(Cc4ccccc4)CC3)cc(=O)c2c1 :: 6.8 ×10⁻⁶ cm/s
COc1cc(OC)c2c(=O)cc(C(=O)NCCC3CCN(Cc4ccccc4)CC3)oc2c1 :: 8.8 ×10⁻⁶ cm/s
COc1cc2oc(C(=O)NCCCC3CCN(Cc4ccccc4)CC3)cc(=O)c2cc1OC :: 5 ×10⁻⁶ cm/s
Nc1ccc2oc(C(=O)NCCC3CCN(Cc4ccccc4)CC3)cc(=O)c2c1 :: 7.6 ×10⁻⁶ cm/s
COc1cccc2c(=O)cc(C(=O)NCCC3CCN(Cc4ccccc4)CC3)[nH]c12 :: 15.3 ×10⁻⁶ cm/s

INPUT: # query: Papp of entry COc1ccc2c(=O)cc(C(=O)NCCC3CCN(Cc4ccccc4)CC3)[nH]c2c1
OUTPUT: 10.9 ×10⁻⁶ cm/s

INPUT: # query: Papp of entry O=C(NCCCC1CCN(Cc2ccccc2)CC1)c1cc(=O)c2cc(O)ccc2o1
OUTPUT: 4.5 ×10⁻⁶ cm/s

###

Listing of recorded pIC50 by entry.
Molecular target: Acetylcholinesterase (Homo sapiens, UniProt P22303)
Sequence (P22303 whole entry): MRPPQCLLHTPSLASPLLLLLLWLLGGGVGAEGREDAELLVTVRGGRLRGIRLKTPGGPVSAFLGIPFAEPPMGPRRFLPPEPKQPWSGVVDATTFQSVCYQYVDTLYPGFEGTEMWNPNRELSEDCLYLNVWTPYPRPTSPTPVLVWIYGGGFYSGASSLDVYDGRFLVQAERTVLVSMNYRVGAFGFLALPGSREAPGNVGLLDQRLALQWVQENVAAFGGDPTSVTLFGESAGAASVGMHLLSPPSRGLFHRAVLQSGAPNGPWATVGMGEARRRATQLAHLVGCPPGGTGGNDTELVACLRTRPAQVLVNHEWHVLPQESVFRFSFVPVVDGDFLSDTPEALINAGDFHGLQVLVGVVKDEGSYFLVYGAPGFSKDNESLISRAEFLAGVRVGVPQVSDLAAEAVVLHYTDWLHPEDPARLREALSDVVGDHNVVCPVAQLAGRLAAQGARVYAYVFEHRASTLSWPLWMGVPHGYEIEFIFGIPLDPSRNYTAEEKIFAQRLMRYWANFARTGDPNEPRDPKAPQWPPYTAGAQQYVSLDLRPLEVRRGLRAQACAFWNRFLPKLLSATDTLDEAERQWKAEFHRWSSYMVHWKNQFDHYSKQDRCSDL
Experiment: Inhibition of recombinant human AChE expressed in HEK293 cells using acetylthiocholine iodide as substrate pretreated for 5 mins followed by substrate addition and measured for 5 mins by Ellman's method
pIC50 is defined as minus the log10 of a concentration measured in mol/L.

INPUT: # query: pIC50 of entry COc1cc(OC)c2c(=O)cc(C(=O)NCCC3CCN(Cc4ccccc4)CC3)oc2c1
OUTPUT: 6.49

INPUT: # query: pIC50 of entry COc1cc2[nH]c(C(=O)NCCC3CCN(Cc4ccccc4)CC3)cc(=O)c2cc1OC
OUTPUT: 6.77

INPUT: # query: pIC50 of entry COc1ccc2oc(C(=O)NCCC3CCN(Cc4ccccc4)CC3)cc(=O)c2c1
OUTPUT: 6.77

INPUT: # query: pIC50 of entry COc1ccc2oc(C(=O)NCC3CCN(Cc4ccccc4)CC3)cc(=O)c2c1
OUTPUT: 5.44

INPUT: # query: pIC50 of entry COc1cc2oc(C(=O)NCCC3CCN(Cc4ccccc4)CC3)cc(=O)c2cc1OC
OUTPUT: 7.34

INPUT: # query: pIC50 of entry COc1cc2oc(C(=O)NCCCC3CCN(Cc4ccccc4)CC3)cc(=O)c2cc1OC
OUTPUT: 6.96

INPUT: # query: pIC50 of entry O=C(NCCCC1CCN(Cc2ccccc2)CC1)c1cc(=O)c2cc(O)ccc2o1
OUTPUT: 7.64

INPUT: # query: pIC50 of entry COc1cc2nc(C(=O)NCCC3CCN(Cc4ccccc4)CC3)cc(OC)c2cc1OC
OUTPUT: 6.21

INPUT: # query: pIC50 of entry O=C(NCCC1CCN(Cc2ccccc2)CC1)c1cc(=O)c2cc(O)c(O)cc2o1
OUTPUT: 5.38
